# Test system: A-375
# Assay Info: Cytotoxicity against human A375 cells at 1 uM after 72 hrs by MTT assay
# Format: functional
# Measurement Parameters: A-375, 72 h, read-out: GI
Catalogue of compounds with associated inhibition of growth at 1 µM
Answers without a unit are incomplete; give the number and then its unit.

-- ask Kindly state the measured inhibition of growth at 1 µM obtained for `CO[C@H]1C(=O)[C@]2(C)[C@@H](OC(=O)N(C)C)C[C@H]3OC[C@@]3(OC(C)=O)[C@H]2[C@H](OC(=O)c2ccccc2)[C@]2(O)C[C@H](OC(=O)[C@H](O)[C@@H](NC(=O)OC(C)(C)C)c3ccccc3)C(C)=C1C2(C)C` with A-375.
-- reply 90.4%

Proceeding to the next compound to report its inhibition of growth at 1 µM.
-- ask Please tell me: inhibition of growth at 1 µM of `CO[C@H]1C(=O)[C@]2(C)[C@@H](OC)C[C@H]3OC[C@@]3(OC(C)=O)[C@H]2[C@H](OC(=O)c2ccccc2)[C@]2(O)C[C@H](OC(=O)[C@H](O)[C@@H](NC(=O)c3ccccc3)c3ccccc3)C(C)=C1C2(C)C` , system A-375?
-- reply 89.7%

---

Listed here are compounds together with their documented efflux ratio at 1.5 h, 10 µM.
# Assay Info: Efflux ratio of apparent permeability from basolateral to apical side over apical to basolateral side in human Caco2 cells at 10 uM after 90 mins by LC-MS/MS analysis
# Type: ADME, cell-based, Caco-2
# Measurement Parameters: Caco-2

-- ask Given the entry CC(=O)O[C@H]1C(=O)[C@@]2(C)[C@H]([C@H](OC(=O)c3ccccc3)[C@]3(O)C[C@H](OC(=O)[C@H](O)[C@@H](NC(=O)c4ccccc4)c4ccccc4)C(C)=C1C3(C)C)[C@]1(OC(C)=O)CO[C@@H]1C[C@@H]2O [PACLITAXEL] , report its measured efflux ratio at 1.5 h, 10 µM.
-- reply 34.4

-- ask // next record `COC(=O)O[C@H]1C[C@H]2OC[C@@]2(OC(C)=O)[C@H]2[C@H](OC(=O)c3ccccc3)[C@]3(O)C[C@H](OC(=O)[C@H](O)[C@@H](NC(=O)OC(C)(C)C)c4ccccc4)C(C)=C([C@@H](OC)C(=O)[C@]12C)C3(C)C`
-- reply 5.23

-- ask For CC(=O)O[C@H]1C(=O)[C@@]2(C)[C@H]([C@H](OC(=O)c3ccccc3)[C@]34OC(=O)O[C@H]3[C@H](OC(=O)[C@H](O)[C@H](CC(C)C)NC(=O)OC(C)(C)C)C(C)=C1C4(C)C)[C@]1(OC(C)=O)CO[C@@H]1C[C@@H]2O [ORTATAXEL] then?
-- reply 6.84

Moving on to another compound below.
-- ask Entry under review: `CO[C@H]1C(=O)[C@]2(C)[C@@H](OC)C[C@H]3OC[C@@]3(OC(C)=O)[C@H]2[C@H](OC(=O)c2ccccc2)[C@]23OC(=O)O[C@H]2[C@H](OC(=O)[C@H](O)[C@@H](NC(=O)OC(C)(C)C)c2ccccc2)C(C)=C1C3(C)C` . Reported efflux ratio at 1.5 h, 10 µM?
-- reply 6.42

---

# System: MDR1
# Assay Info: Apparent permeability from basolateral to apical side in MDCK cells expressing MDR1 at 5 uM after 90 mins
# Format: ADME, cell-based, Canis lupus familiaris
# Measurement Parameters: dog
Reported Papp B→A at 1.5 h, 5 µM values for a set of compounds

-- ask Quick one: Papp B→A at 1.5 h, 5 µM of `CO[C@H]1C(=O)[C@]2(C)[C@@H](OC(=O)N(C)C)C[C@H]3OC[C@@]3(OC(C)=O)[C@H]2[C@H](OC(=O)c2ccccc2)[C@]2(O)C[C@H](OC(=O)[C@H](O)[C@@H](NC(=O)OC(C)(C)C)c3ccccc3)C(C)=C1C2(C)C` ?
-- reply 5.26 ×10⁻⁶ cm/s

-- ask `CC(=O)O[C@H]1C(=O)[C@@]2(C)[C@H]([C@H](OC(=O)c3ccccc3)[C@]3(O)C[C@H](OC(=O)[C@H](O)[C@@H](NC(=O)c4ccccc4)c4ccccc4)C(C)=C1C3(C)C)[C@]1(OC(C)=O)CO[C@@H]1C[C@@H]2O` ?
-- reply 44.1 ×10⁻⁶ cm/s

-- ask Entry to check: `CO[C@H]1C[C@H]2OC[C@@]2(OC(C)=O)[C@H]2[C@H](OC(=O)c3ccccc3)[C@]34OC(=O)O[C@H]3[C@H](OC(=O)[C@H](O)[C@@H](NC(=O)OC(C)(C)C)c3ccccc3)C(C)=C([C@@H](OC(=O)N(C)C)C(=O)[C@]12C)C4(C)C`
-- reply 6.38 ×10⁻⁶ cm/s

-- ask Next up: `C[C@H]1O[C@@H](O[C@H]2[C@@H](O)C[C@H](O[C@H]3[C@@H](O)C[C@H](O[C@H]4CC[C@@]5(C)[C@H](CC[C@@H]6[C@@H]5C[C@@H](O)[C@]5(C)[C@@H](C7=CC(=O)OC7)CC[C@]65O)C4)O[C@@H]3C)O[C@@H]2C)C[C@H](O)[C@@H]1O`
-- reply 12.4 ×10⁻⁶ cm/s
